The entries below are paired with their reported melting point.
Please give a number only; it is taken to be in °C.

COc1ccc2c(c1)c1c3c(c(-c4ccccc4Cl)cc1n2CCC(=O)O)C(=O)NC3=O = 277

Next, consider the following molecule.
Bench note: what melting point did O=C(O)CCCc1cc2nc(Cl)ccc2n1S(=O)(=O)c1ccc2snnc2c1 show?
227

###

The entries below are paired with their reported melting point.

Example results:
c1cc(N2CCCN(c3ccc(-c4ccc5c(c4)OCO5)cn3)CC2)ncc1-c1ccc2c(c1)OCO2 = 235 to 237 °C
Oc1cccc2c1c1cccc(Cl)c1n2Cc1ccc(F)cc1 = 142 to 145 °C
Clc1ccccc1C(Cl)c1ccc(-c2ccccc2)cc1 (centres undefined) = 80 °C
O=C(CCCCCCNS(=O)(=O)c1ccc(C(=O)Nc2ccc(Cl)c(-c3ccccn3)c2)c(Cl)c1)NO = 159 °C
CCCc1ncc(C(=O)OCC)c(NCc2ccc(-c3ccccc3-c3nnn[nH]3)cc2)n1 = 146 to 147 °C
Cc1ccc(C=C2C=C(C(C)(C)C)C=C(C(C)(C)C)C2=O)cc1C = 214 to 217 °C

Bench note: what melting point did Cc1cc(C2=NN(c3nccs3)[C@H](C)Cc3cc4c(cc32)OCO4)ccc1[N+](=O)[O-] show?
138 to 142 °C

And Nc1nc(OCc2ccccc2)c2ncn(CCC3COP(=O)(OCc4ccccc4)OC3)c2n1 (centres undefined) ?
162 to 166 °C

And C#CCNC1=NS(=O)(=O)N=C1NCCSCc1nc[nH]c1C ?
82 to 103 °C

###

The entries below are paired with their reported melting point.

Example results:
CN1CCc2c(Br)ccc([N+](=O)[O-])c2C1 = 85 to 87 °C
CS(=O)(=O)Nc1ccccc1SC1CCCCC1 = 50 to 51 °C
CC(C(=O)O)c1cccc(NC(=O)NCC(=O)N2[C@@H](c3cccc(F)c3F)SC[C@H]2C(=O)OC(C)(C)C)c1 (stereo not given in full) = 130 °C
CC(=O)Nc1ccc(OC2SCC(OC(C)=O)C(OC(C)=O)C2OC(C)=O)cc1 (stereo not given) = 166 °C
CC(C)(C)c1ccc(C(=O)CCCN2CCC(C3(O)c4ccccc4CCc4ccccc43)CC2)cc1 = 132 to 134 °C

Bench note: what melting point did COc1cc2c(cc1O)CCN(Cc1cccc(Oc3ccccc3)c1)C2 show?
139 to 140 °C

And COc1ccccc1OCCCCCOc1ccc(C(=N)N)cc1 ?
96 to 98 °C

And Cc1onc(-c2ccccc2)c1C(=O)N(CCN(C)C)c1ccccc1 ?
88 to 89 °C

And Cc1ccc(S(=O)(=O)Oc2n[nH]c(CO)c2C(C)(C)C)cc1 ?
62 to 65 °C

And C=C1C(=O)c2ccccc2OC1c1ccc([N+](=O)[O-])cc1 (stereo not given) ?
135 to 136 °C

###

The entries below are paired with their reported melting point.

O=C1NCCN1c1ccncc1 = 204 to 207 °C
CCOC(=O)c1cn(C2CC2)c2c(C#N)c(N3C[C@@H]4CCCN[C@@H]4C3)c(F)cc2c1=O = 209 to 210 °C
COc1cccc(Cc2nc3n(-c4c(Cl)cc(C=O)cc4Cl)[nH]c(C(C)C)c-3c(=O)n2)c1 = 212 to 214 °C
CCCc1c(OCc2nc(N)c3nccnc3n2)ccc(C(C)=O)c1O = 178 to 180 °C

Bench note: what melting point did O=C1NCc2c1cc1ccc3c(c1c2-c1ccc(C(F)(F)F)cc1)OCO3 show?
315 to 317 °C

And O=c1n(-c2ccc(N3CCNCC3)cc2)cnn1CC(F)(F)C(F)F ?
155 to 157 °C

And CC1c2ccccc2CC(O)Cc2ccccc21 (stereo not given) ?
142 to 145 °C

And CCOC(=O)c1ccc(-c2ncc(Cl)nc2Cl)cc1 ?
88.5 to 90 °C

And CC(C)(C)OC(=O)N1CC(CCl)c2c1ccc1ccc(C#N)cc21 (stereo not given) ?
138 to 140 °C

And Clc1ccc(OC(c2cccnc2)n2cncn2)c(Cl)c1 (stereo not given) ?
75.5 to 78 °C

Sourced from a melting point compilation (Tetko et al.; mined from patent text by program, amines drawn as free bases though some values may be those of a salt)
